- assay system: Recombinant human factor D (Homo sapiens (Human))
- Sequence (P00746 26-253): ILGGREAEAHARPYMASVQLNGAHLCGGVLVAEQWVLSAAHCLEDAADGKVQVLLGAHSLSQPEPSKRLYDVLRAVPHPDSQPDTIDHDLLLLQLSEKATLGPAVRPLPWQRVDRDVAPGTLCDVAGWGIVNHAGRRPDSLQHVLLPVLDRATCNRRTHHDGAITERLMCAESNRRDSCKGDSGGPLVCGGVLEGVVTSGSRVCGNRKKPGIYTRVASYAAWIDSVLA
- run description: biochemical
- Format: biochemical
- condition set: read-out: IC50
measured endpoint: IC50 (nM)

{"molecule": "CC(=O)c1nn(CC(=O)N2[C@H](C(=O)N[C@H]3CCCC(C)(C)C3)C[C@@]3(CO)C[C@@H]23)c2cnccc12", "measured endpoint": "IC50", "observed result": 2200}
{"molecule": "CO[C@@H]1CCC[C@@H](NC(=O)[C@@H]2C[C@H]3C[C@H]3N2C(=O)Cn2nc(C(C)=O)c3ccccc32)C1", "measured endpoint": "IC50", "observed result": 323}
{"molecule": "CO[C@H]1CCC[C@@H](NC(=O)[C@@H]2C[C@H]3C[C@H]3N2C(=O)Cn2nc(C(C)=O)c3ccccc32)C1", "measured endpoint": "IC50", "observed result": 405}
{"molecule": "CC(=O)c1nn(CC(=O)N2[C@@H]3C[C@@H]3C[C@H]2C(=O)NC2CC(C)CC(C)(C)C2)c2ncccc12 (stereo partly shown)", "measured endpoint": "IC50", "observed result": 22}
